Assay: qHTS Assay for Lipid Storage Modulators in Drosophila S3 Cells;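 as to cell number change: cells counted by Cell Tracker Red CMTPX staining in the red channel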
Details: BODIPY lipid droplet fluorescence, 18-24 h, cells fed with added oleic acid; measured here: cell count max response
Out of some 320,000 compounds screened, about 2,100 (0.66%) were called active. Inconclusive results (about 53%) are left out. This is one part of a sample in which actives are shown more often than they occur.
metric_name: cell number change (%)

compound: CC(C)N(Cc1nnc(-c2ccc(Cl)cc2)o1)C(=O)c1cc2ccccc2o1
measurement: -8.15

compound: O=[N+]([O-])c1ccc(-c2nc(-c3cccs3)c(-c3cccs3)[nH]2)cc1
measurement: 7.44

compound: CCn1c2ccc(C)cc2c2nc3cc(C(=O)O)ccc3nc21
measurement: -5.53

compound: O=C(c1ccc(Cl)cc1)N1CCN(c2ccc(F)cc2)CC1
measurement: -2.3

compound: COc1ccccc1NC(=O)C(C/C=C(/C)Cl)C(C)=O (stereo unspecified)
measurement: 12.3

compound: COc1cc(S(=O)(=O)NCc2ccncc2)c(OC)cc1Cl
measurement: 12.7

compound: COc1ccc(NC(=O)/C(C#N)=C/c2cccnc2)c(OC)c1
measurement: -14.9

compound: CS(=O)(=O)N(CC(=O)N1CCCCC1)c1ccc(Cl)c(C(F)(F)F)c1
measurement: 0.64

compound: c1coc(C2Nc3cccc4cccc(c34)N2)c1
measurement: -0.664

compound: O=C(O)c1ccc(-c2nc(-c3ccccc3)c(-c3cccs3)[nH]2)cc1
measurement: 16.3

compound: COc1ccc(NC(=O)CCNC(=O)c2ccc([N+](=O)[O-])cc2)cc1S(=O)(=O)N1CCOCC1
measurement: -1.49

* * *

Test: qHTS Assay for Lipid Storage Modulators in Drosophila S3 Cells
Settings: BODIPY lipid droplet fluorescence, 18-24 h, cells fed with added oleic acid; series mostly up to 46.1 µM
The campaign covered roughly 320,000 compounds. About 2,100 (0.66%) were called active. Inconclusive results (about 53%) are left out. The call rests on the fitted dose curve; in most records, active means well fitted inhibition curve with a large enough effect in the signal ratio, with a control signal flat (not every such curve was filed as active); inconclusive means small, poorly fitted or top-dose-only effect, or effect the other way, or a change in a side signal; inactive means flat fitted curve, though single readings scatter; the % refers to the signal ratio. The full list was thinned out, with actives kept by preference.
Labels: 1 for active, -1 for inactive

molecule: CN(C)CCCNCCCNC(=O)/C(=N\O)c1ccccn1
discrete_label: -1

molecule: CCOc1cc(CNCC2CCCN2CC)cc(Cl)c1OC (centres undefined)
discrete_label: -1

molecule: COc1cc2c(cc1OC)CN(C(=O)Nc1ccccc1Cl)CC2
discrete_label: -1

molecule: COc1ccc([C@H]2CC(=O)C=C(c3ccc(OC)c(F)c3)C2)cc1
discrete_label: 1

molecule: COc1ccc(C=O)cc1Oc1nc(Cl)ncc1F
discrete_label: -1

molecule: CC(C)Oc1cccc(C(=O)N2CCCC2)c1
discrete_label: -1

molecule: COc1ccc(CNC(=O)C2(c3ccc(Cl)cc3)CC2)cc1
discrete_label: -1

molecule: CCCCOc1cccc(C(=O)O)c1
discrete_label: -1

molecule: CCOC(=O)N1CCN(C(=O)CSCC(=O)Nc2nc(-c3ccccc3)cs2)CC1
discrete_label: -1

molecule: CC1CCN(CC(=O)Nc2nc(-c3ccccc3)cs2)CC1
discrete_label: -1

molecule: C=CCN(Cc1nc(-c2ccccc2)no1)C(=O)c1ccoc1C
discrete_label: -1

molecule: COc1ccc(CCNC(=O)C2CC(c3ccccc3[N+](=O)[O-])=NO2)cc1 (centres undefined)
discrete_label: -1

molecule: CCOc1ccccc1NC(=O)C1CCCN(S(=O)(=O)c2cccc3nsnc23)C1 (centres undefined)
discrete_label: -1

molecule: O=C(NCCO)C1(c2ccc(Cl)cc2)CCCC1
discrete_label: 1

molecule: CCN1CCCC1CNCc1ccccc1OCc1ccc(F)cc1 (centres undefined)
discrete_label: -1

molecule: CCOC(=O)c1ccc(-c2csc(NC(=O)CN3CCC(C)CC3)n2)cc1
discrete_label: 1

molecule: CCOC(=S)SCC(=O)Nc1nc(-c2ccccc2)cs1
discrete_label: 1

molecule: C=CCn1c(SC(C)CC)nc(O)cc1=O (centres undefined)
discrete_label: -1

molecule: O=C(NNc1nc2c(F)cccc2s1)C1COc2ccccc2O1 (centres undefined)
discrete_label: -1

molecule: COc1ccc([C@H]2CC(=O)C=C(c3ccc(C)c(F)c3)C2)cc1
discrete_label: -1

molecule: O=C1CN(CC(=O)N2CCOCC2)c2ccccc2O1
discrete_label: -1

molecule: COc1cc(F)c(C2=CC(=O)C[C@H](c3ccc4c(c3)OCO4)C2)cc1F
discrete_label: -1

molecule: COc1ccc(NS(=O)(=O)c2ccc(C)c(C(=O)N3CC(C)OC(C)C3)c2)cc1 (centres undefined)
discrete_label: -1

molecule: Cc1ccc(/C=N/NC(=O)Cc2c(F)cccc2Cl)s1
discrete_label: -1
